Provide the recorded TGI for the entries that follow.
Tested on: DLD-1 colon
Experiment: NCI tumour cell line growth inhibition, 48 h

Reported TGI, compound COC(=O)C1=C(C(=O)OC)C23CC4CCC2(C(=O)C1O3)C4(C)C (stereo unspecified) : ____
> 100 µM

`O=S1(=O)[C@H](c2ccccc2)c2c(-c3ccccc3)sc(-c3ccccc3)c2[C@@H]1c1ccccc1` , same question.
> 100 µM

Ok, now `O=c1cc(-c2cccc(Cl)c2)[nH]c2cc3c(cc12)OCO3`
8.57 µM

Proceed to `Cc1cnoc1/N=C1\C=C(Nc2oncc2C)C(=O)c2ccccc21`
> 100 µM

What do you have for CN(N=O)C(=O)NC(CCCCNC(=O)OCc1ccccc1)C(=O)OCc1ccccc1 (stereo unspecified) ?
> 100 µM

Try `[O-]c1ccccc1C=NCCN=Cc1ccccc1[O-].[O]=[U+2]=[O]` next.
> 100 µM

Source of measurements: PubChem BioAssay (NCI)
